method-description: Hemolytic activity
Type: cell-based, human
test-context: human, human red blood cells (washed, 1% suspension), 37 °C, 1% red blood cell suspension
measurement-label: hemolysis at 60 min, 400 µg/mL (%)
One number for each entry, in %.

* CC(=O)N[C@@H](CCCCNC(=N)N)C(=O)N(CCC(=O)N[C@@H](CCCCNC(=N)N)C(=O)N(CCC(=O)N[C@@H](CCCCNC(=N)N)C(=O)N(CCC(=O)N[C@@H](CCCCNC(=N)N)C(=O)N(CCC(=O)N[C@@H](CCCCNC(=N)N)C(=O)N(CCC(=O)N[C@@H](CCCCNC(=N)N)C(=O)N(CCC(N)=O)[C@@H](C)C1CCCCC1)[C@@H](C)C1CCCCC1)[C@@H](C)C1CCCCC1)[C@@H](C)C1CCCCC1)[C@@H](C)C1CCCCC1)[C@@H](C)C1CCCCC1 [Compound 2, Ac-[hArg-βNsce]6-NH2] | 98.4

Next compound, please.
// query hemolysis at 60 min, 400 µg/mL value for entry C[C@@H](c1ccccc1)N(CCC(=O)N[C@@H](CCCCN)C(=O)N(CCC(=O)N[C@@H](CCCCNC(=N)N)C(=O)N(CCC(=O)N[C@@H](CCCCN)C(=O)N(CCC(=O)N[C@@H](CCCCNC(=N)N)C(=O)N(CCC(=O)N[C@@H](CCCCN)C(=O)N(CCC(N)=O)[C@@H](C)c1ccccc1)[C@@H](C)c1ccccc1)[C@@H](C)c1ccccc1)[C@@H](C)c1ccccc1)[C@@H](C)c1ccccc1)C(=O)[C@H](CCCCNC(=N)N)NC(=O)C=Cc1ccccc1 [Compound 6, Cinn-[hArg-βNspe-Lys-βNspe]3-NH2]
15.7

Reference source: paper PMC8197855
